test system: SF-268 CNS; experiment: NCI tumour cell line growth inhibition, 48 h
ASSAY ENDPOINT: TGI

Task item: Give the measured TGI of CC(C)C(CC(=O)OCC(CO)OC(=O)CC(C(C)C)C(C)C)C(C)C (configuration not stated) .
Reply: 27.6 µM

Task item: Give the measured TGI of Cc1ccc2nc(-c3ccc(N(C)C)c(Br)c3)cn2c1 .
Reply: > 100 µM

Task item: Give the measured TGI of O=S(=O)(O)c1ccc(N=Nc2ccc(N=Nc3ccc(/C=C/c4ccc(N=[N+]([O-])c5ccc(/C=C/c6ccc(N=Nc7ccc(N=Nc8ccc(S(=O)(=O)O)cc8)cc7)cc6S(=O)(=O)O)c(S(=O)(=O)O)c5)cc4S(=O)(=O)O)c(S(=O)(=O)O)c3)cc2)cc1 .
Reply: > 100 µM

Task item: Give the measured TGI of CCCOc1ccc2nc(NC(=O)OC)[nH]c2c1 .
Reply: > 100 µM

Task item: Give the measured TGI of Cn1c(=O)c2c(nc3n(Cc4ccccc4)c(=O)c(NCCCBr)cn23)n(C)c1=O .
Reply: > 100 µM

Task item: Give the measured TGI of O=C(OCCN=c1c2ccccc2ccc2ccccc12)c1ccccc1 .
Reply: > 100 µM

Task item: Give the measured TGI of CCn1c2ccc(O)cc2c2c(C)c3c[n+](C)ccc3c(C)c21 .
Reply: 4.33 µM

Task item: Give the measured TGI of NC(=O)c1csc(C2(O)COC(CO)C2O)n1 (configuration not stated) .
Reply: > 100 µM

Task item: Give the measured TGI of COc1ccccc1C1Nn2c(nc3ccccc3c2=O)N1c1ccc(C)cc1 (configuration not stated) .
Reply: 25.1 µM

Task item: Give the measured TGI of COc1ccc(Cn2cc3c(c2)-c2oncc2CC3)cc1 .
Reply: > 100 µM

Task item: Give the measured TGI of O=C1NC(=S)S/C1=C(/C=C(\CC(=O)c1ccccc1)c1ccc(Cl)cc1)c1ccccc1 .
Reply: 96 µM

Task item: Give the measured TGI of CC(C)N1CC2CC(CN(C(=O)c3ccccc3)C2)C1 .
Reply: > 100 µM

Task item: Give the measured TGI of COC(=O)Cc1ccc2c(cnn2-c2ccccc2)c1OC .
Reply: > 10 µM

Task item: Give the measured TGI of COc1ccc(/C=C\c2cc(OC)c(O[Si](C)(C)C(C)(C)C)c(OC)c2)cc1 .
Reply: > 100 µM

Task item: Give the measured TGI of COc1cccc2c1C(=O)c1c(O)c3c(c(O)c1C2=O)C[C@H](O)C[C@@H]3OC1CC(N)C(O)C(C)O1 (some centres not stated) .
Reply: 10.6 µM

Task item: Give the measured TGI of NC(N)=NCCC1OC(=O)C2=C1c1c(O)ccc3nccc(c13)O2 (configuration not stated) .
Reply: > 100 µM

Task item: Give the measured TGI of COC(=O)C1=C(C(=O)OC)SC(=CC#CC=C2SC(C(=O)OC)=C(C(=O)OC)S2)S1 .
Reply: > 60.1 µM

Task item: Give the measured TGI of CS(=O)(=O)CSCSSCS(C)(=O)=O .
Reply: 77.5 µM

Task item: Give the measured TGI of CC[O-].CC[O-].O=S(=O)([O-])c1ccc([O-])c2ncccc12.O=S(=O)([O-])c1ccc([O-])c2ncccc12.[Ti+4] .
Reply: > 100 µM

Task item: Give the measured TGI of C1=C2C3=[N+](CCCCC3)CC2Cc2ccsc21 (configuration not stated) .
Reply: > 100 µM

Task item: Give the measured TGI of CCOC(=O)c1cc(/C=C/C(C)=C/C(=O)OC)oc1C .
Reply: > 100 µM

Task item: Give the measured TGI of C[C@]12CCCC(=O)C1(O)C[C@H](C(=O)O)CC2 (some centres not stated) .
Reply: > 100 µM
